Origin of measurements: ChEMBL document CHEMBL4765486

- TARGET: UniProt P11473
- EXPERIMENT SUMMARY: Binding affinity to VDR (unknown origin) at 1 uM by fluorescence polarization assay relative to calcipotriol
- ASSAY CONTEXT: filed as agonist
Hi all, reminder that labels come from RBA, split as low = under 60%, intermediate = from 60% up to 70%, high = 70% and over

| COMPOUND | CLASS LABEL |
| --- | --- |
| CCN(CC)CCNC(=O)c1cc(C(CC)(CC)c2ccc(OCCCCC(O)(CC)CC)c(C)c2)cn1CC | low |
| CCCC(O)(CCC)CCOc1ccc(C(CC)(CC)c2ccc(C(=O)NCCCN(CC)CC)n2CC)cc1C | low |
| CCN(CC)CCCNC(=O)c1ccc(C(CC)(CC)c2ccc(OCCC(C)(C)O)c(C)c2)n1CC | high |
| CCCC(O)(CCC)CCCCOc1ccc(C(CC)(CC)c2ccc(C(=O)NCCCN(CC)CC)n2CC)cc1C | intermediate |
| CCn1c(C(=O)NCC2CCOCC2)ccc1C(CC)(CC)c1ccc(OCCC(C)(C)O)c(C)c1 | high |
| CCn1cc(C(CC)(CC)c2ccc(OCC(C)O)c(C)c2)cc1C(=O)NCCCN1CCN(C)CC1 (configuration not stated) | intermediate |
| CCn1cc(C(CC)(CC)c2ccc(OCC(C)O)c(C)c2)cc1C(=O)NCCN1CCN(C)CC1 (configuration not stated) | high |

---

- TARGET: Vitamin D3 receptor (Homo sapiens) (UniProt P11473)
- Sequence (whole entry): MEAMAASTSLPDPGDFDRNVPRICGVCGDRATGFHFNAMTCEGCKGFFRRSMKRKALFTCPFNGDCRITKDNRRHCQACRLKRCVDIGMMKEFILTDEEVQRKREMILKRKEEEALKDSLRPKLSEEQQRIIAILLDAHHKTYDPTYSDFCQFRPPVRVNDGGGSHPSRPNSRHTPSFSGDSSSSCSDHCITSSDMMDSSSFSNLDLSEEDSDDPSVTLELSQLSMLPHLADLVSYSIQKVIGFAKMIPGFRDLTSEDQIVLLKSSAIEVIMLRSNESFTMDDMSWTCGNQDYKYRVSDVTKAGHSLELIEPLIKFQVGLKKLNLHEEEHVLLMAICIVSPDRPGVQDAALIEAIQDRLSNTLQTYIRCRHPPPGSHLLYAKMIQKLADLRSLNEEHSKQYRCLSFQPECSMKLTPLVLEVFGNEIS
- EXPERIMENT SUMMARY: Binding affinity to VDR (unknown origin) at 1 uM by fluorescence polarization assay relative to calcipotriol
- ASSAY CONTEXT: filed as agonist
VALUE KIND: RBA

| COMPOUND | REPORTED RESULT |
| --- | --- |
| CCn1cc(C(CC)(CC)c2ccc(OCC(C)O)c(C)c2)cc1C(=O)NCCN(C)C (stereo not given) | 70% |
| CCn1cc(C(CC)(CC)c2ccc(OCC(C)O)c(C)c2)cc1C(=O)NCC1CCCO1 (stereo not given) | 60% |
| CCN(CC)CCCNC(=O)c1cc(C(CC)(CC)c2ccc(OCC(O)c3ccccc3)c(C)c2)cn1CC (stereo not given) | 59% |
| CCn1c(C(=O)NCCN2CCN(C)CC2)ccc1C(CC)(CC)c1ccc(OCCC(C)(C)O)c(C)c1 | 68% |
| CCn1cc(C(CC)(CC)c2ccc(OCC(C)O)c(C)c2)cc1C(=O)NCCCN1CCOCC1 (stereo not given) | 71% |
